Each item that follows carries a reported melting point.
parameter.measured: melting point

INSERT INTO assay_data (compound_structure, parameter_measured, result) VALUES
  ('O=C(c1ccccc1CBr)c1cc(F)ccc1CBr', 'melting point', '118 to 119 °C'),
  ('O=CNNc1ccccc1', 'melting point', '138 to 143 °C'),
  ('CN(O)C(=O)C=Cc1ccc(F)cc1', 'melting point', '141 to 142 °C'),
  ('C#Cc1cc(C)c(C2=C(O)C3(CCN(OC)CC3)N(C)C2=O)c(C)c1', 'melting point', '258 to 260 °C'),
  ('CC(C)Oc1ccc(-c2nc(-c3ccc(OC(C)C)cc3O)nc(-c3ccc(OC(C)C)cc3O)n2)c(O)c1', 'melting point', '122 °C');

* * *

parameter.measured: melting point

INSERT INTO assay_data (compound_structure, parameter_measured, result) VALUES
  ('Cc1ccccc1-c1c2c(cc3ccc(O)cc13)-c1ccc(O)cc1CO2', 'melting point', '193 to 196 °C'),
  ('Cc1c(-n2cnc3c(-c4ccccc4)cc(F)cc32)nc2ccc(F)cc2c1C(=O)O', 'melting point', '208 to 210 °C'),
  ('O=c1cc(O)cnn1Cc1ccccc1', 'melting point', '48 to 55 °C'),
  ('C[Si](C)(C)c1ccc(NC(=O)CCCC=C(F)F)cc1', 'melting point', '50 to 51 °C'),
  ('CC(C)(C)OC(=O)N1CCN(CC(=O)N2CCC3(CC2)Cn2cc([N+](=O)[O-])nc2O3)CC1', 'melting point', '211 to 213 °C'),
  ('COC(=O)c1cc2c(nc1C)C(=O)CCC2', 'melting point', '180 to 181 °C');

* * *

parameter.measured: melting point

INSERT INTO results (compound_structure, result) VALUES
  ('Fc1cc(-c2cc(C(F)(F)F)n3ncc(-c4cccnc4)c3n2)ccc1C(F)(F)F', '162 °C'),
  ('Cc1coc(Cc2ccc([N+](=O)[O-])cc2)n1', '67 to 68 °C'),
  ('COc1cc(Br)c2oc(-c3ccc(OC)c(F)c3)nc2c1', '175 to 177 °C');

* * *

parameter.measured: melting point

INSERT INTO results (compound, result) VALUES
  ('CCn1cc(C(=O)NCCc2ccccc2)c(=O)c2cnc(N3CCCC3)nc21', '178 to 180 °C'),
  ('C[C@H](CO)[C@H]1CC[C@H]2[C@@H]3C=CC4=CC(=O)C=C[C@]4(C)[C@H]3CC[C@]12C', '156 to 157 °C'),
  ('CCOC(=O)CCc1n[nH]c(SCc2ccc(OCc3nc(-c4ccccc4)oc3C)cc2)n1', '114 to 115 °C'),
  ('CCSC1CC(=O)CC(SCC)C1(O)c1ccccc1 (configuration not stated)', '49 to 50 °C'),
  ('O=C1N(Cc2sccc2Cl)c2ccccc2C12COc1cc3c(cc12)OCO3 (configuration not stated)', '161 to 163 °C'),
  ('N#CC1CN1C(=O)c1cc2ccccc2o1 (configuration not stated)', '92 to 94 °C'),
  ('Cn1ccnc1N1CCN(c2ccc([N+](=O)[O-])cc2)CC1', '193 to 194 °C'),
  ('Cc1cc([C@@H](O)[C@@H]2[C@@H](C)CCCC2(C)C)ccc1C#N', '111 to 113 °C'),
  ('Cc1c(C)c2c(c(C)c1Br)OC(C)(C)C2=O', '125 to 127 °C'),
  ('COc1ccc(C(=O)Oc2ccc(C(=O)O)c(C)c2)cc1C12CC3CC(CC(C3)C1)C2', '236 to 237 °C'),
  ('O=c1c2cc(F)c(N3CCCC3)nc2n(-c2ccc(F)cc2F)c(=O)n1OCc1ccccc1', '183 to 185 °C'),
  ('O=C(O)C(O)c1ccccc1Nc1c(Cl)cccc1Cl (configuration not stated)', '140 to 142 °C'),
  ('C(=CCN(Cc1ccccc1)Cc1ccccc1)CN(Cc1ccccc1)Cc1ccccc1', '114 to 115 °C'),
  ('COc1ccc2c(n1)C1(CO2)C(=O)N(Cc2csc(C(C)C)n2)c2ccccc21 (configuration not stated)', '136 to 138 °C'),
  ('CCCOc1c(I)cc(C(=O)CCC(=O)c2cc(OC)c(OC)c(OC)c2)cc1OC', '120 to 121 °C'),
  ('O=C(O)c1ccc(CCn2ccn([C@H]3CCc4c(F)cc(F)cc4C3)c2=S)cc1', '222 to 224 °C'),
  ('CCN(C(=O)C1CC1)c1cnn2ccccc12', '83 to 86 °C');
